# System: Streptococcus pyogenes C203
# assay-method-text: In vivo protection of mice experimentally infected with S. pyogenes C203
# conditions-used: Streptococcus pyogenes, C203; mice; oral; doses given 1 and 4 hours post-infection; read-out: ED50, Oral
Field: ED50. Provide a value for each of the compounds that follow.
One number for each entry, in mg/kg.

Reference set (2 entries):
CCC1OC(=O)CC(O)C(C)C(OC2OC(C)C(O)C(N(C)C)C2O)C(CCOC(C)=O)CC(C)C(=O)C=CC(C)=CC1COC1OC(C)C(O)C(OC)C1OC (stereo not drawn) [Compound 29, 20-DH-20-O-Acetyldesmycosin] :: 36
CCOC(=O)C1CSC(CC2CC(C)C(=O)C=CC(C)=CC(COC3OC(C)C(O)C(OC)C3OC)C(CC)OC(=O)CC(O)C(C)C2OC2OC(C)C(O)C(N(C)C)C2O)N1 (stereo not drawn) [Compound 76] :: 17

Data request, read-out ED50, for CCC1OC(=O)CC(O)C(C)C(OC2OC(C)C(O)C(N(C)C)C2O)C(CCOc2ccc(C=O)cc2)CC(C)C(=O)C=CC(C)=CC1COC1OC(C)C(O)C(OC)C1OC (stereo not drawn) [Compound 36, 20-DH-20-O-(p-formylphenyl)desmycosin]
19
